Every entry's value here was drawn from BigSolDB 2.1.

- Measurement Context: in n-propanol, 305.4 K
Parameter: solubility (mole fraction)
Number only, no unit.

Please list solubility (mole fraction) recorded for the molecule C[N+](C)(C)CCOC(=O)CCCC(=O)O.[Cl-]
0.002

###

- Measurement Context: in n-propanol, 328.9 K
Parameter: solubility (mole fraction)
Number only, no unit.

Please list solubility (mole fraction) recorded for the molecule C[N+](C)(C)CCOC(=O)CCC(=O)O.[Cl-]
0.025

###

- Measurement Context: in n-butanol, 322.4 K
Parameter: solubility (mole fraction)

Please list solubility (mole fraction) recorded for the compound C[N+](C)(C)CCOC(=O)CCC(=O)O.[Cl-]
0.009

###

- Measurement Context: in ethanol, 272.1 K
Parameter: solubility (mole fraction)

Please list solubility (mole fraction) recorded for the molecule CC(=O)[O-].C[N+](C)(C)CCO
0.184

###

- Measurement Context: in ethanol, 263.9 K
Parameter: solubility (mole fraction)
Number only, no unit.

Please list solubility (mole fraction) recorded for the compound CC(=O)[O-].C[N+](C)(C)CCO
0.09

###

- Measurement Context: in n-butanol, 323.8 K
Parameter: solubility (mole fraction)
Number only, no unit.

Please list solubility (mole fraction) recorded for the molecule C[N+](C)(C)CCOC(=O)CCCC(=O)O.[Cl-]
0.0022
